Source of measurements: patent US20260116991A1

biological target: T1, monkey GPC3 on HEK293T-monkey GPC3 cells (monkey); test: FACS on HEK293T-monkey GPC3 cells;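 further: flow cytometry binding of test antibodies to the cells, read as mean fluorescence intensity, with half-maximal concentration taken from fitted curves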
T1 construct: whole, on cells
Collected EC50 values appear next to each entry.
Numbers only; they are read as nM.

Recorded results for 4 binders are shown here.
*Q* Given F2.154.1 (antibody, human IgG1, kappa, V domains shown, Human-murine chimeric antibody) VH: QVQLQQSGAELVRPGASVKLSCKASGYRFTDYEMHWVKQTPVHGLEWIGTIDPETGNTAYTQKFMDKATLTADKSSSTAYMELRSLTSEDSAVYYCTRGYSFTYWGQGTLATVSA VL: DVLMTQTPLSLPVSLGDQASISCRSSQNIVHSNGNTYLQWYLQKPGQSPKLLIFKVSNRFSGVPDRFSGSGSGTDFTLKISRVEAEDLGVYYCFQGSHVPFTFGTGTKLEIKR , state its recorded EC50.
*A* 0.41

*Q* # query: EC50 of entry F1.2.14 (antibody, human IgG1, kappa, V domains shown, Human-murine chimeric antibody) VH: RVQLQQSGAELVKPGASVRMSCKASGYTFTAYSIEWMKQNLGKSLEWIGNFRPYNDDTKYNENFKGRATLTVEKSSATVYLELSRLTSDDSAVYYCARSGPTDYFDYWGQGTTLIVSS VL: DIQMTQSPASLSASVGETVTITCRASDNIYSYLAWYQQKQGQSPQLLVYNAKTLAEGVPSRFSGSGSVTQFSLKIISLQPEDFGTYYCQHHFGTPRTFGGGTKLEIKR
*A* 1.1

*Q* // lookup EC50 for F1.120.16 (antibody, human IgG1, kappa, V domains shown, Human-murine chimeric antibody) VH: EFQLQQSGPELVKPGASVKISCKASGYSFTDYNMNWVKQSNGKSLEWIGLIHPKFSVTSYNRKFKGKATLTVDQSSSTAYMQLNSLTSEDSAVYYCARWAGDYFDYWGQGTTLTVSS VL: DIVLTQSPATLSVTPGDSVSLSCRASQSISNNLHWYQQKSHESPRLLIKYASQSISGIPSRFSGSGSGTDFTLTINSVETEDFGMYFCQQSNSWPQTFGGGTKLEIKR
*A* 0.25

*Q* What value of EC50 has been reported for the following binder? F1.115.8 (antibody, human IgG1, kappa, V domains shown, Human-murine chimeric antibody) VH: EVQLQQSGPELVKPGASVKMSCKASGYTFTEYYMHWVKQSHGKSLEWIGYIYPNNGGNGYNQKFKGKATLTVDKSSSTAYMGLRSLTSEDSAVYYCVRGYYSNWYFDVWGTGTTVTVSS VL: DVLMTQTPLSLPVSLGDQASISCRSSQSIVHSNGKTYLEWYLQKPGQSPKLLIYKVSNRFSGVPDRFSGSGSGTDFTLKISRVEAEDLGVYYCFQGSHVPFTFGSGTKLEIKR
*A* 0.33

Please turn your attention to the following entry.
*Q* Item under review: F3.81.19 (antibody, human IgG1, kappa, V domains shown, Human-murine chimeric antibody) VH: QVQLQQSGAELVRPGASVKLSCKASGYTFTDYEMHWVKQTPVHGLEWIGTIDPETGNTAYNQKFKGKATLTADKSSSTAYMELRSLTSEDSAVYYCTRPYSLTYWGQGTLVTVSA VL: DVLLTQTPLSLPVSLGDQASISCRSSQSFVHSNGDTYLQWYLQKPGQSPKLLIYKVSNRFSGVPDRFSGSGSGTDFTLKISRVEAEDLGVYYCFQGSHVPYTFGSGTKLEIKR . Reported EC50?
*A* 2.58
